B1: Membrane-associated guanylate kinase, WW and PDZ domain-containing protein 2, residues 601 to 682; numbered along this chain, Q86UL8 (parent)
chain: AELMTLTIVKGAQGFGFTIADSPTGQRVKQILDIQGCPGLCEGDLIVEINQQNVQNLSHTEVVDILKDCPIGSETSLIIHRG

Variants of: B1
method.notes: abundance fitness (aPCA) (normalised: wild type 0, dead -1); higher = more abundant; growth selection in yeast, the domain comes from the species named
condition.details: Homo sapiens
Reported abundance fitness values follow for various variants
Please give the numeric answer without any surrounding text.

What value of abundance fitness has been reported for the following variant? `D64P` -0.202

Return reported abundance fitness; argument: `R81I` -0.668

Please look up its abundance fitness: `G72K` -0.139

# lookup: abundance fitness of `E42F` -0.123

Please give the measured abundance fitness for this variant: `C69W` -0.25

For `L32C` , what is its reported abundance fitness? -0.197

Which value of abundance fitness has been reported for `T24L` in the records? -0.023

What does the data say about its abundance fitness? Entry: `Q30W` 0.04

For `G39W` , what is its reported abundance fitness? -0.211

# input variant: `Q52L` ; wanted: its abundance fitness -0.072
